This collection of values is drawn from ChEMBL document CHEMBL1150387.

target: Tyrosine-protein kinase ZAP-70 (Homo sapiens) (UniProt P43403); assay: Inhibition of ZAP70 at 10 uM by HTRF assay relative to control
Sequence (P43403 whole entry): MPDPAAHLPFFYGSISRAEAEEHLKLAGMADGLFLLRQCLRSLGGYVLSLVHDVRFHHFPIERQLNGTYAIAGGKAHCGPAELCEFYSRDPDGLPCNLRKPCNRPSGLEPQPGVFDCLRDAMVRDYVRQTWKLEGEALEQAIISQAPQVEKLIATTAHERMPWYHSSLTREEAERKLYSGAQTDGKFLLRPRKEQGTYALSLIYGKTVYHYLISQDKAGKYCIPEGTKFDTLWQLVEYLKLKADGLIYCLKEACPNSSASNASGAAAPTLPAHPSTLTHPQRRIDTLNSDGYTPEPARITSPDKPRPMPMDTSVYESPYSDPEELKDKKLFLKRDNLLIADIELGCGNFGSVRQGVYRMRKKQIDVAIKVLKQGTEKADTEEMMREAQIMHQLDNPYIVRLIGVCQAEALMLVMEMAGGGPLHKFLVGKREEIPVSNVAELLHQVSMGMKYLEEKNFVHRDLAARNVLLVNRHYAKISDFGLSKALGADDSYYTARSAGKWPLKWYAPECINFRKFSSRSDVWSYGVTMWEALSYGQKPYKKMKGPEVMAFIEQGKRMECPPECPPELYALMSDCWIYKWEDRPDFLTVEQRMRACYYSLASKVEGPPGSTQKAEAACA
readout.name: inhibition (%)
Quick reminder: number only, in %, skip the unit.

Worked examples follow.
>  <mol>
Nc1nc(N2CCOCC2)cc(N2CCC(C(=O)NCc3cccs3)CC2)n1

>  <display.unit>
%

>  <assay.value>
3

$$$$
>  <mol>
Nc1nc(Nc2ccc3ncsc3c2)cc(N2CCC[C@H]2C(=O)N[C@@H](CO)c2ccccc2)n1

>  <display.unit>
%

>  <assay.value>
6

$$$$
>  <mol>
Cc1cccc(N(C)c2cc(Nc3cccc(C(=O)NCCCn4ccnc4)c3)ncn2)c1

>  <display.unit>
%

>  <assay.value>
4

$$$$
>  <mol>
O=C(CN1CCN(c2ncnc3c2CN(Cc2ccccc2)CC3)CC1)Nc1cc(F)ccc1F

>  <display.unit>
%

>  <assay.value>
5

$$$$
>  <mol>
CN(C)CC(C)(C)CNC(=O)c1cccc(Nc2nccc(Nc3ccc4ncsc4c3)n2)c1

>  <display.unit>
%

>  <assay.value>
18

$$$$
>  <mol>
Cc1cc(C(=O)N2CCN(c3ncnc4c3CN(Cc3ccccc3)CC4)CC2)c(C)n1C

>  <display.unit>
%

>  <assay.value>
0

$$$$
>  <mol>
O=C(NCc1cccnc1)c1cccc(-c2ccc(Nc3ccc4ncsc4c3)nn2)c1

>  <display.unit>
%

>  <assay.value>
11

$$$$
>  <mol>
Nc1nc(N2CCOCC2)cc(N2CCC(C(=O)NCCc3ccc(O)cc3)CC2)n1

>  <display.unit>
%

>  <assay.value>
2

$$$$
>  <mol>
Nc1nc(Nc2ccc(C(=O)NCCc3ccncc3)cc2)cc(N2CCOCC2)n1

>  <display.unit>
%

>  <assay.value>
6

$$$$

# ---- query compound ----
May I ask what inhibition has been recorded for CN(C)CC(C)(C)CNC(=O)C1CCN(c2cc(N3CCOCC3)nc(N)n2)CC1 ?
8
